Biological target: cynomolgus monkey STING protein (Macaca fascicularis, UniProt A0A2R3XZA6)
Sequence (A0A2R3XZA6 entry or part of it): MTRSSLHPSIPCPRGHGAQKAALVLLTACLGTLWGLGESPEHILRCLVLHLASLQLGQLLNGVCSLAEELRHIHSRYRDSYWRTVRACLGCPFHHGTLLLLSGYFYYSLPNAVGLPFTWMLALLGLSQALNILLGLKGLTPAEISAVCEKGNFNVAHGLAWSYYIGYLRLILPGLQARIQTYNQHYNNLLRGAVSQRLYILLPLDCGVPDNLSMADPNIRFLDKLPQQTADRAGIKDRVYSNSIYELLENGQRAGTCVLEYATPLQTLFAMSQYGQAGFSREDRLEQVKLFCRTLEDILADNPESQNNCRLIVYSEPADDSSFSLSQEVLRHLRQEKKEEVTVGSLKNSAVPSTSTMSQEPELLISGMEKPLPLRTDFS
Assay: Luciferase reporter assay, cynomolgus monkey STING overexpressed in HEK293T cells
Format: cell-based
Details: cynomolgus monkey STING overexpressed in HEK293T cells; read-out: Cynomolgus monkey STING activity (EC50 range)
pEC50: −log10 of the molar value.
Readout Kind: pEC50

Entry C[C@H]1c2ccc(C(=O)NCc3c(F)cc(F)cc3F)cc2N(Cc2c(Cl)ccc(F)c2F)C(=O)N1C : reported pEC50 = ? > 6.00

Now consider C[C@H]1c2ccc(C(=O)NCc3c(F)cc(F)cc3F)cc2N(Cc2c(F)ccc(OP(=O)(O)O)c2Cl)C(=O)N1C . > 6.00

Would you mind doing C[C@H]1c2ccc(C(=O)NCc3c(F)cc(F)cc3F)cc2N(Cc2cc(N)ccc2F)C(=O)N1C as well? 5.00 to 6.00

Follow-up item: C[C@H]1c2ccc(C(=O)NCc3c(F)cc(F)cc3F)cc2N(Cc2c(F)cc(OCCOC(=O)CN)cc2F)C(=O)N1C > 6.00

// next record C[C@H]1c2ccc(C(=O)NCc3c(F)cc(F)cc3F)cc2N(Cc2c(O)ccc(F)c2F)C(=O)N1C > 6.00
